Kindly state Binding ΔG for each of the entries shown.
- experimental target: Tumor Necrosis Factor-alpha (TNF-α)
- Sequence (P01375 77-233): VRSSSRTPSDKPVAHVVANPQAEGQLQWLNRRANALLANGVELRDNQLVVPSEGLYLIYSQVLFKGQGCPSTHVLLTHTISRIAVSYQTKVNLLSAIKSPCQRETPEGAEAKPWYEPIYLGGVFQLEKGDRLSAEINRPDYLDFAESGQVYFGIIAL
- experimental details: SPR equilibrium, Biacore A100, TNF-α captured on chip
Give bare numbers, in kcal/mol.

FERDPLMMPWKFLQSRQGSC (modifications not checked) [TNF1 S11K point-mutant]; -6.03
FERYPLMMPWSFLQSRQGSC (modifications not checked) [TNF1 D4Y point-mutant]; -5.95
FERDYLMMPWSFLQSRQGSC (modifications not checked) [TNF1 P5Y point-mutant]; -5.79

-- ask What value of Binding ΔG has been recorded for this entry: FERDPLKMPWSFLQSRQGSC (modifications not checked) [TNF1 M7K point-mutant]
-- reply -5.93
